Values compiled from patent US5962487A.

target: Rhinovirus 3C protease (RVP) serotype-14 (Human rhinovirus 14); construct: Recombinant Rhinovirus 3C proteases from serotypes 14, 16, 2 or 89 were prepared; made in house; test: Inhibition of Rhinovirus Protease, serotype 14 (FRET assay); format: biochemical; conditions: read-out: kobs/I
Sequence (P03303 1538-1719): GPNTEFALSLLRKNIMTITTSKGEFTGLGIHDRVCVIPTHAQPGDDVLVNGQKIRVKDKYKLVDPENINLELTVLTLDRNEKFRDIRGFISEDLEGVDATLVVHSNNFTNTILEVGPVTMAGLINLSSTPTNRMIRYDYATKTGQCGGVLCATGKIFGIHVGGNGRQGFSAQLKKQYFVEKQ
Entries and their measured kinact/KI follow.
MEASURED ENDPOINT: kinact/KI

>>> experimental_value("CCOC(=O)/C=C/[C@H](CCC(N)=O)NC(=O)[C@H](Cc1ccccc1)N(C)C(=O)[C@H](CSc1ccccc1)NC(=O)SC1CCCC1")
"36800 M⁻¹ s⁻¹"
>>> experimental_value("CCOC(=O)/C=C/[C@H](CCC(N)=O)NC(=O)[C@@H]1C[C@@H](OCc2ccccc2)CN1C(=O)[C@H](CC(C)C)NC(=O)OCc1ccccc1")
"3330 M⁻¹ s⁻¹"
>>> experimental_value("CCOC(=O)/C=C/[C@H](CCC(N)=O)NC(=O)[C@H](Cc1ccccc1)N(C)C(=O)[C@H](CC(C)C)NC(=O)SC1CCCC1")
"17300 M⁻¹ s⁻¹"
>>> experimental_value("CCOC(=O)/C=C/[C@H](CCC(N)=O)NC(=O)[C@H](Cc1ccc(C)cc1)N(C)C(=O)[C@@H](NC(=O)SC1CCCC1)C(C)(C)C")
"14000 M⁻¹ s⁻¹"
>>> experimental_value("CCOC(=O)/C=C/C(CCC(N)=O)NC(=O)[C@@H]1CCc2ncc(N(C(=O)SC3CCCC3)C(=O)SC3CCCC3)c(=O)n21 (stereo partly shown)")
"14000 M⁻¹ s⁻¹"
>>> experimental_value("CCOC(=O)/C(C)=C/[C@H](CCC(N)=O)NC(=O)[C@H](Cc1ccccc1)N(C)C(=O)[C@H](CC(C)C)NC(=O)SC(C)C")
"2330 M⁻¹ s⁻¹"
>>> experimental_value("CCOC(=O)/C=C/[C@H](CCC(N)=O)NC(=O)[C@H](Cc1ccccc1)n1ccn(NC(=O)OCc2ccccc2)c1=O")
"361 M⁻¹ s⁻¹"
>>> experimental_value("CCOC(=O)/C=C/C(CCC(N)=O)NC(=O)[C@@H]1CCc2ncc(NC(=O)SC3CCCC3)c(=O)n21 (stereo partly shown)")
"43900 M⁻¹ s⁻¹"
>>> experimental_value("CCOC(=O)/C=C/[C@H](CCC(N)=O)NC(=O)[C@H](Cc1ccc(OC)cc1)N(C)C(=O)[C@H](CC(C)C)NC(=O)SCC")
"43800 M⁻¹ s⁻¹"
>>> experimental_value("CCOC(=O)/C=C/[C@H](CCC(N)=O)NC(=O)[C@@H]1CCCCN1C(=O)[C@H](CC(C)C)NC(=O)OCc1ccccc1")
"1470 M⁻¹ s⁻¹"
>>> experimental_value("CCOC(=O)/C=C/[C@H](CCC(N)=O)NC(=O)[C@@H]1CCCN1C(=O)[C@H](CC(C)C)NC(=O)SCC")
"22000 M⁻¹ s⁻¹"
>>> experimental_value("CCOC(=O)/C=C/[C@H](CCC(N)=O)NC(=O)[C@@H]1CCCN1C(=O)[C@H](CC(C)C)NC(=O)OCc1ccccc1")
"1930 M⁻¹ s⁻¹"
>>> experimental_value("CCOC(=O)/C=C/C(CCC(N)=O)NC(=O)[C@H](Cc1ccccc1)N1CC[C@H](NC(=O)OCc2ccccc2)C1=O (stereo partly shown)")
"242 M⁻¹ s⁻¹"
